Experiment: Inhibition of human mitochondrial ribosome Mit 13 hybridized with Mycobacterium smegmatis ribosome assessed as inhibition of translation activity using Firefly luciferase mRNA reporter based luminescence analysis
measured metric: log10 of IC50 (log10 of the value in µM)
Values are log10 of IC50 in µM.

Prompt line: Recorded log10 of IC50 of `CCN[C@@H]1C[C@H](N)[C@@H](O[C@H]2OC(CN)=C(Cl)C[C@H]2N)[C@H](O)[C@H]1O[C@H]1OC[C@](C)(O)[C@H](NC)[C@H]1O` , please.
Response line: 1.76

Prompt line: Could you share which log10 of IC50 value was measured for `CCN[C@@H]1C[C@H](N)[C@@H](O[C@H]2OC(CN)=C(Br)C[C@H]2N)[C@H](O)[C@H]1O[C@H]1OC[C@](C)(O)[C@H](NC)[C@H]1O` ?
Response line: 1.72

Prompt line: Returns the measured log10 of IC50 for the input compound. Input: `CCN[C@@H]1C[C@H](N)[C@@H](O[C@H]2OC(CN)=C(c3ccccc3)C[C@H]2N)[C@H](O)[C@H]1O[C@H]1OC[C@](C)(O)[C@H](NC)[C@H]1O`
Response line: 1.46

Prompt line: I am curious: what log10 of IC50 value has been reported for `CCC[C@H]1[C@H](O)[C@@H](N)[C@@H](O[C@H]2[C@H](O[C@@H]3O[C@H](CO)[C@@H](O[C@H]4O[C@@H](CN)[C@@H](O)[C@H](O)[C@H]4N)[C@H]3O)[C@@H](O)[C@H](N)C[C@@H]2N)O[C@@H]1CO` ?
Response line: 2.22

Prompt line: # query: log10 of IC50 of entry NC[C@@H]1O[C@H](O[C@H]2[C@@H](O)[C@H](O[C@@H]3[C@@H](O)[C@H](N)C[C@H](N)[C@H]3O[C@H]3O[C@H](CO)[C@@H](O)[C@H](O)[C@H]3N)O[C@@H]2CO)[C@H](N)[C@@H](O)[C@@H]1O [PAROMOMYCIN]
Response line: 2.15

Prompt line: So what does the record say about log10 of IC50 for CCN[C@@H]1C[C@H](N)[C@@H](O[C@H]2OC(CN)=CC[C@H]2N)[C@H](O)[C@H]1O[C@H]1OC[C@](C)(O)[C@H](NC)[C@H]1O [NETILMICIN] ?
Response line: 1.45

###

Here the recorded MIC is given for each entry.
Tested on: Pseudomonas aeruginosa
Experiment: Antibacterial activity against Pseudomonas aeruginosa clinical isolate AG033
Assay type: functional

[
  {
    "compound": "CCN[C@@H]1C[C@H](N)[C@@H](O[C@H]2OC(CN)=C(Cl)C[C@H]2N)[C@H](O)[C@H]1O[C@H]1OC[C@](C)(O)[C@H](NC)[C@H]1O",
    "system": "Pseudomonas aeruginosa",
    "MIC": "> 128 µg/mL"
  },
  {
    "compound": "CCN[C@@H]1C[C@H](N)[C@@H](O[C@H]2OC(CN)=C(Br)C[C@H]2N)[C@H](O)[C@H]1O[C@H]1OC[C@](C)(O)[C@H](NC)[C@H]1O",
    "system": "Pseudomonas aeruginosa",
    "MIC": "64 µg/mL"
  },
  {
    "compound": "CCN[C@@H]1C[C@H](N)[C@@H](O[C@H]2OC(CN)=C(SCC)C[C@H]2N)[C@H](O)[C@H]1O[C@H]1OC[C@](C)(O)[C@H](NC)[C@H]1O",
    "system": "Pseudomonas aeruginosa",
    "MIC": "> 128 µg/mL"
  },
  {
    "compound": "CCN[C@@H]1C[C@H](N)[C@@H](O[C@H]2OC(CN)=C(c3ccccc3)C[C@H]2N)[C@H](O)[C@H]1O[C@H]1OC[C@](C)(O)[C@H](NC)[C@H]1O",
    "system": "Pseudomonas aeruginosa",
    "MIC": "> 64 µg/mL"
  }
]

Prompt line: Sample CCN[C@@H]1C[C@H](N)[C@@H](O[C@H]2OC(CN)=CC[C@H]2N)[C@H](O)[C@H]1O[C@H]1OC[C@](C)(O)[C@H](NC)[C@H]1O [NETILMICIN] — what was its MIC?
Response line: > 128 µg/mL

Prompt line: Which MIC value is on record for `CCCCC1=C(CN)O[C@H](O[C@H]2[C@H](O)[C@@H](O[C@H]3OC[C@](C)(O)[C@H](NC)[C@H]3O)[C@H](NCC)C[C@@H]2N)[C@H](N)C1` ?
Response line: > 128 µg/mL

Prompt line: Fill blank: measured MIC of the compound `CCN[C@@H]1C[C@H](N)[C@@H](O[C@H]2OC(CN)=C(I)C[C@H]2N)[C@H](O)[C@H]1O[C@H]1OC[C@](C)(O)[C@H](NC)[C@H]1O` is ____.
Response line: > 128 µg/mL

Hello, the source for this data is ChEMBL document CHEMBL4373646, in case you need it.
